# Ratio listing for each entry below
# assayProtocol: Adrenal/Tissue ratio calculated from percent dose per gram of tissue determined after 1 day intravenous administration from liver
# Format: functional

CC(C)CCCC(C)C1CCC2C3CC(CI)C4=C(CCC(O)C4)C3CCC12C (centres undefined)    52.2
CC(C)[Te]CCCC(C)C1CCC2C3CC=C4CC(O)CCC4(C)C3CCC12C (centres undefined)    27.1
C[Se]C[C@@H]1CC2C(CCC3(C)C(C(C)CCCC(C)C)CCC23)C2=C1CC(O)CC2 (some centres undefined) [SCINTIDREN]    42

Q: Request the reported Ratio associated with CC(C)[Se]CCC[C@H](C)[C@H]1CC[C@H]2[C@@H]3CC=C4C[C@@H](O)CC[C@]4(C)[C@H]3CC[C@]12C
Result: 27.1

----------
# Ratio listing for each entry below
# assayProtocol: Adrenal/Tissue ratio calculated from percent dose per gram of tissue determined after 1 day intravenous administration from blood
# Assay type: functional
Give your answer as a number; write no unit.

Example results:
CC(C)[Se]CCC[C@H](C)[C@H]1CC[C@H]2[C@@H]3CC=C4C[C@@H](O)CC[C@]4(C)[C@H]3CC[C@]12C    67.3
CC(C)CCCC(C)C1CCC2C3CC(CI)C4=C(CCC(O)C4)C3CCC12C (centres undefined)    92.1
C[Se]C[C@@H]1CC2C(CCC3(C)C(C(C)CCCC(C)C)CCC23)C2=C1CC(O)CC2 (some centres undefined)    105

Moving on to another compound below.
Q: Request the reported Ratio associated with CC(C)[Te]CCCC(C)C1CCC2C3CC=C4CC(O)CCC4(C)C3CCC12C (centres undefined)
Result: 54.8
